The measurements presented in this section are drawn from patent US9232799B2.

MEASUREMENT_DESCRIPTION: logP by HPLC on reversed-phase column (C 18), EEC Directive 79/831 Annex V.A8
Assay type: physicochemical
RUN_PARAMETERS: logP
Description: In table 1, the logP values were determined in accordance with EEC Directive 79/831 Annex V.A8 by HPLC (High Performance Liquid Chromatography) on a reversed-phase column (C 18), using the method described below: Temperature: 40° C.; […]
REPORTED_ENDPOINT: chromatographic logP

> print(dat)
                                   compound     reported.endpoint  observed.value
1  Cn1nc(C(F)F)c(C(=O)NC(C)(C)C(=O)c2ncc(C(F)(F)F)cc2Cl)c1F  chromatographic logP            3.23
2  CC(Cc1ncc(C(F)(F)F)cc1Cl)NC(=O)c1c(C(F)F)nn(C)c1F (stereo not shown)  chromatographic logP            3.08
3  COC(c1ccc(Cl)cc1Cl)C(C)NC(=O)c1c(C(F)F)nn(C)c1F (stereo not shown)  chromatographic logP            3.65
4  CC(Cc1ncc(C(F)(F)F)cc1Cl)N(C(=O)c1c(C(F)F)nn(C)c1F)C1CC1 (stereo not shown)  chromatographic logP             3.8
